Entry source: ChEMBL document CHEMBL4689842

# System: U2OS
# ASSAY NOTES: Multiplex assay against U2OS
# Type: toxicity, cell-based
# MEASUREMENT CONDITIONS: human, 24 h, 1 µM, compound concentration 1 uM, replicate 2
# Lookup of reported Population Mitochondria Different-Phenotype (%) keyed by entry
Write the answer as a number in %, unit excluded.

Q: Which Population Mitochondria Different-Phenotype (%) value is on record for Cc1nc(Nc2n[nH]c3c2CN(C(=O)N[C@H](CN(C)C)c2ccccc2)C3(C)C)c2sccc2n1 ?
A: 29

Q: Which Population Mitochondria Different-Phenotype (%) value is on record for C[C@@H](NCCCc1cccc(C(F)(F)F)c1)c1cccc2ccccc12.Cl [CINACALCET HYDROCHLORIDE] ?
A: 26

Q: Which Population Mitochondria Different-Phenotype (%) value is on record for Cc1nc(-c2ccc(-c3ccc(C(=O)N4CCc5cc6c(cc54)C4(CCN(C)CC4)CO6)cc3)c(C)c2)no1 ?
A: 38

Q: Which Population Mitochondria Different-Phenotype (%) value is on record for CN1CCCC(n2nc(Cc3ccc(Cl)cc3)c3ccccc3c2=O)CC1.Cl (stereo not drawn) [AZELASTINE HYDROCHLORIDE] ?
A: 57

Q: Which Population Mitochondria Different-Phenotype (%) value is on record for Cc1c(-c2ccc(O)cc2)n(Cc2ccc(OCCN3CCCCCC3)cc2)c2ccc(O)cc12 ?
A: 6

Q: Which Population Mitochondria Different-Phenotype (%) value is on record for CCN(CC)CCCCNc1ncc2cc(-c3cc(OC)cc(OC)c3)c(NC(=O)NC(C)(C)C)nc2n1 ?
A: 38

Q: Which Population Mitochondria Different-Phenotype (%) value is on record for CC(C)NCC(O)COc1ccc(CCOCC2CC2)cc1.Cl (stereo not drawn) [BETAXOLOL HYDROCHLORIDE] ?
A: 6

Q: Which Population Mitochondria Different-Phenotype (%) value is on record for CN(C)C(=O)N[C@H]1CC[C@H](CCN2CCN(c3cccc(Cl)c3Cl)CC2)CC1.Cl [CARIPRAZINE HYDROCHLORIDE] ?
A: 22
